# SYSTEM: T1, full-length beta-Catenin (Uniprot ID P35222) (Homo sapiens (Human), UniProt P35222 2-781)
# T1 construct: also called bCat; B-Catenin
# T1 sequence: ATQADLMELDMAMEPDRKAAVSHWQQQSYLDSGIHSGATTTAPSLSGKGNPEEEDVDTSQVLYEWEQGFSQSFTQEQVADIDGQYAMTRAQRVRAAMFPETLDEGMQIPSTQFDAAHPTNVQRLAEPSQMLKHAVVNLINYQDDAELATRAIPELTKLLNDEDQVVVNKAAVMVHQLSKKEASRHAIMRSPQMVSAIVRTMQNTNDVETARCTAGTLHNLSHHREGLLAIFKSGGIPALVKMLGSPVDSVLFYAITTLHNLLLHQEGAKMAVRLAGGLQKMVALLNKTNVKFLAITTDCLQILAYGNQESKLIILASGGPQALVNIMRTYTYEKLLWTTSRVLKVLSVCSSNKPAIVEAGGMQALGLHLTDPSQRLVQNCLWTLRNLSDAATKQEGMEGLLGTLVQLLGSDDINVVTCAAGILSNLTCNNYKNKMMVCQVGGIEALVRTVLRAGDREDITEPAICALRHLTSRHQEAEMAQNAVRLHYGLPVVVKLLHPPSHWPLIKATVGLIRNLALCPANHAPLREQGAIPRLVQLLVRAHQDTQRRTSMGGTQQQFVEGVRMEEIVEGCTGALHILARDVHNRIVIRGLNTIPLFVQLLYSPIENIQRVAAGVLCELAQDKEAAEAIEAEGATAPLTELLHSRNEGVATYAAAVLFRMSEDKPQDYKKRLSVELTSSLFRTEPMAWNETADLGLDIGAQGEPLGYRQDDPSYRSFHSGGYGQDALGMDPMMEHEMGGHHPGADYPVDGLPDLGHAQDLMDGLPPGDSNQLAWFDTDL
# METHOD DESCRIPTION: fluorescence polarization competition, 5FAM-TCF4 10-53 probe on full-length beta-catenin
pEC50: −log10 of the molar value. Starred links: 1 amine or outer side, 2 acyl side, 3 side chain; linkers in the order of their positions; H or OH if unused. Positions of bridges follow the written chain, without caps; N, C: chain ends. Non-standard residues stand in square brackets, D forms with d. PyrS2 = (S)-3-amino-1-((pent-4-en-1-yloxy)carbonyl)pyrrolidine-3-carboxylic acid, C=CCCCOC(=O)N1CC[C@@](N[*:1])(C(=O)[*:2])C1; B5 = 2-amino-2-(pent-4-en-1-yl)hept-6-enoic acid, C=CCCCC(CCCC=C)(N[*:1])C(=O)[*:2]; Phe(2-Cl) = N[C@@H](Cc1ccccc1Cl)C(=O)O; Bta = N[C@@H](Cc1csc2ccccc12)C(=O)O; αAllylPro = C=CC[C@@]1(C(=O)O)CCCN1; hSer = N[C@@H](CCO)C(=O)O
REPORTED ENDPOINT: pEC50

Ac-[αAllylPro]DF[B5]DDAAFL[PyrS2][Phe(2-Cl)][Bta][dT]-NH2 (staple 1-4, 4-11, Stapled (stitched) peptide by olefin metathesis; E/Z isomer(s) of the staples not assigned) [I-1146] = 7.48
Ac-[αAllylPro]DF[B5]DDAAFS[PyrS2][Phe(2-Cl)][Bta][dT]-NH2 (staple 1-4, 4-11, Stapled (stitched) peptide by olefin metathesis; E/Z isomer(s) of the staples not assigned) [I-1142] = 7.66
Ac-[αAllylPro]DF[B5]DDAAFS[PyrS2][Phe(2-Cl)][Bta][hSer]-NH2 (staple 1-4, 4-11, Stapled (stitched) peptide by olefin metathesis; E/Z isomer(s) of the staples not assigned) [I-1143] = 7.92
Ac-[αAllylPro]DF[B5]DDAAFL[PyrS2][Phe(2-Cl)][Bta]T-NH2 (staple 1-4, 4-11, Stapled (stitched) peptide by olefin metathesis; E/Z isomer(s) of the staples not assigned) [I-1145] = 7.74
Ac-[αAllylPro]DF[B5]DDAAFS[PyrS2][Phe(2-Cl)][Bta]T-NH2 (staple 1-4, 4-11, Stapled (stitched) peptide by olefin metathesis; E/Z isomer(s) of the staples not assigned) [I-1141] = 7.89
Ac-[αAllylPro]DF[B5]DDAAFS[PyrS2][Phe(2-Cl)][Bta]L-NH2 (staple 1-4, 4-11, Stapled (stitched) peptide by olefin metathesis; E/Z isomer(s) of the staples not assigned) [I-1144] = 7.55
